target: Beta-3 Adrenergic Receptor (Homo sapiens (Human), UniProt P13945); assay: Homogeneous Time-Resolved Fluorescence (HTRF) cAMP antagonist assay, IC50 determination; settings: CHO-K1 cells stably expressing recombinant receptor, isoproterenol at EC90
Sequence (P13945 whole entry, species assumed): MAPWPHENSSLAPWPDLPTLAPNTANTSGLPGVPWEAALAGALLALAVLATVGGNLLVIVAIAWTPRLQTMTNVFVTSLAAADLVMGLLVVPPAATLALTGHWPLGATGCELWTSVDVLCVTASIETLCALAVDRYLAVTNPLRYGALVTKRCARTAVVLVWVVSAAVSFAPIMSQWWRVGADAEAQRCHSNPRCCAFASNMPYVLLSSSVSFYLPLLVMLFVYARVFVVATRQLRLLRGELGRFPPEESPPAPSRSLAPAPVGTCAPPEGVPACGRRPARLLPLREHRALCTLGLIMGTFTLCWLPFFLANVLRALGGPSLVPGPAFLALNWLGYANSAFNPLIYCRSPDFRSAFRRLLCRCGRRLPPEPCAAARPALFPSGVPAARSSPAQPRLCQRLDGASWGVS
pIC50: −log10 of the molar value.
MEASUREMENT KIND: pIC50

[1] CNS(=O)(=O)c1cccc(OC[C@@H](O)CN[C@@H]2COC3(CCN(S(=O)(=O)c4cc(OC)cc(-c5ccc(CN)cc5)c4)CC3)C2)c1 [Compound 449]
[2] CNS(=O)(=O)c1cccc(OC[C@@H](O)CN[C@H]2COC3(CCN(S(=O)(=O)c4ccc5[nH]c(C)nc5c4)CC3)C2)c1 [Compound 501]
[3] NS(=O)(=O)c1cccc(OC[C@@H](O)CN[C@H]2COC3(CCN(S(=O)(=O)c4ccc5c(c4)CCCO5)CC3)C2)c1 [Compound 565]
Falling order of pIC50, please. # answer = labels listed in requested order
1, 2, 3

[1] CNS(=O)(=O)c1cccc(OC[C@@H](O)CN[C@@H]2COC3(CCN(S(=O)(=O)c4cncc(-c5ccc(CN)cc5)c4)CC3)C2)c1 [Compound 374]
[2] CC(C)CCNS(=O)(=O)c1cccc(OC[C@@H](O)CNC2COC3(CCN(S(=O)(=O)c4ccc5ccccc5c4)CC3)C2)c1 (stereo partly drawn) [Compound 98]
[3] CNS(=O)(=O)c1cccc(OC[C@@H](O)CN[C@H]2COC3(CCN(S(=O)(=O)c4cnc5c(c4)COCC5)CC3)C2)c1 [Compound 488]
Ranking field: pIC50; order: falling. // respond by listing labels in the order requested
1, 3, 2
(1: 7.80, 3: 7.42, 2: 7.15)

###

target: Beta-3 Adrenergic Receptor (Homo sapiens (Human), UniProt P13945); assay: Homogeneous Time-Resolved Fluorescence (HTRF) cAMP antagonist assay, IC50 determination; conditions: CHO-K1 cells stably expressing recombinant receptor, isoproterenol at EC90
MEASUREMENT KIND: IC50 (nM)

Previously resolved entries follow.
- MOLECULE: "CNS(=O)(=O)c1cccc(OC[C@@H](O)CN[C@H]2COC3(CCN(c4nc(OC)cc(OC)n4)CC3)C2)c1"
  MEAS VALUE: 266
- MOLECULE: "CNS(=O)(=O)c1cccc(OC[C@@H](O)CN[C@H]2COC3(CCN(S(=O)(=O)c4cnc5c(c4)CNC5)CC3)C2)c1"
  MEAS VALUE: 1510
- MOLECULE: "CNS(=O)(=O)c1cccc(OC[C@@H](O)CNC2COC3(CCN(S(=O)(=O)c4cc(C(F)(F)F)ccc4Cl)CC3)C2)c1 (stereo partly shown)"
  MEAS VALUE: 65.4
- MOLECULE: "CNS(=O)(=O)c1cccc(OC[C@@H](O)CN[C@H]2COC3(CCN(S(=O)(=O)c4cnc5cccnc5c4)CC3)C2)c1"
  MEAS VALUE: 35.8

[a] CC(=O)NS(=O)(=O)c1cccc(OC[C@@H](O)CNC2COC3(CCN(S(=O)(=O)c4ccc5ccccc5c4)CC3)C2)c1 (stereo partly shown)
[b] O=S(=O)(NC(CO)CO)c1cccc(OC[C@@H](O)CNC2COC3(CCN(S(=O)(=O)c4ccc5ccccc5c4)CC3)C2)c1 (stereo partly shown)
Given a and given b , which shows the smaller recorded IC50? Lab log: write the label of the selected item as the result.
b
